Measured mortality at 24 h, 8 microg/ml, listed per entry.
Assay: Acute toxicity in zebrafish embryo assessed as mortality rate at 8 microg/ml preincubated with compound for 24 hrs and measured after 48 to 72 hrs post fertilization
Set-up: species or system Danio rerio
Settings: in vivo, at 8 µg/mL

[
  {
    "input-smiles": "CC1(C)CCC[C@]2(C)[C@H]3CC[C@@](C)(CC(=O)NC(=N)N)O[C@]3(C)CC[C@@H]12",
    "mortality at 24 h, 8 microg/ml, %": 0
  },
  {
    "input-smiles": "CC1(C)CCC[C@]2(C)[C@H]3CC[C@](C)(CC(=O)NC(=N)N)O[C@]3(C)CC[C@@H]12",
    "mortality at 24 h, 8 microg/ml, %": 35
  }
]
